Overview of reported drug sensitivity score across a group of molecules:
test system: KURAMOCHI; assay: drug sensitivity score (DSS2) on cancer cell count; higher = more sensitive; extreme values may be limits of the assay; details: co-cultured fibroblast: BJHTERT; 72 h
Report as a plain number; the unit DSS is understood.

Would you please look over these solved cases?
>>> df
                                   molecule  observed
0     C[C@]1(c2nc3c(C(N)=O)cccc3[nH]2)CCCN1       0.4
1  N#CC(c1ccnc(OCc2ccc(CN3CCOCC3)cc2)n1)c1nc2ccccc2s1 (centres undefined)       2.5
2  Cc1cc([C@@H](C)Nc2ccccc2C(=O)O)c2nc(N3CCOCC3)cc(=O)n2c1       6.1

So for `CN(C)C(=O)c1ccc(S(=O)(=O)c2ccc(NC(=O)[C@@](C)(O)C(F)(F)F)c(Cl)c2)cc1` , the logged drug sensitivity score turned out to be 0.4

###

tested on: OVCAR8; assay: drug sensitivity score (DSS2) on cancer cell count; higher = more sensitive; extreme values may be limits of the assay; details: co-cultured fibroblast: WI38; 72 h
endpoint: drug sensitivity score
For clarity, give the value followed by its unit.

// below: answered compounds
>>> df
                                 smiles_str  observed
0  NC[C@@](O)(c1ccc(Cl)cc1)c1ccc(-c2cn[nH]c2)cc1  10.7 DSS
1  N#Cc1ccc2[nH]c(O)c(-c3ccc(CN4CCOCC4)cn3)c2c1     0 DSS
2  COc1ccc(-c2ccc3c(N4CCOC[C@@H]4C)nc(N4CCOC[C@@H]4C)nc3n2)cc1CO  11.4 DSS
3  Cc1cc(OCc2nnc(SC3CCCC3)n2-c2cccnc2)ccc1-c1ccc(S(C)(=O)=O)cc1   4.7 DSS

Now for a further compound.
Per the records, this compound ( `CC(C)C[C@@H](C(=O)N[C@H](C(=O)OC1CCCC1)c1ccccc1)[C@H](O)C(=O)NO` ) has drug sensitivity score equal to 11.4 DSS

###

test system: OVCAR8; assay: drug sensitivity score (DSS2) on cancer cell count; higher = more sensitive; extreme values may be limits of the assay; conditions: co-cultured fibroblast: WI38; 72 h
# drug sensitivity score listing for each entry below
Just the number please, in DSS, no unit attached.

Below: 2 molecules and their reported drug sensitivity score.
molecule	unit.descriptor	drug sensitivity score
C#Cc1cccc(Nc2ncnc3cc(OCCOC)c(OCCOC)cc23)c1	DSS	0
COc1cccc(OCCCN)c1-c1cc(Nc2cnc(C#N)cn2)n[nH]1	DSS	33.7

Note to self: drug sensitivity score recorded for `CC(C)C[C@H](NC(=O)[C@@H](COC(C)(C)C)NC(=O)[C@H](Cc1ccc(O)cc1)NC(=O)[C@H](CO)NC(=O)[C@H](Cc1c[nH]c2ccccc12)NC(=O)[C@H](Cc1cnc[nH]1)NC(=O)[C@@H]1CCC(=O)N1)C(=O)N[C@@H](CCCNC(=N)N)C(=O)N1CCC[C@H]1C(=O)NNC(N)=O` was 0

Lab note: `NCC(=O)Nc1ccc(-n2nc(C(F)(F)F)cc2-c2ccc3c(ccc4ccccc43)c2)cc1` gave drug sensitivity score of 0

Kindly note the recorded drug sensitivity score for `CCN(CC)CCNC(=O)c1c(C)[nH]c(/C=C2\C(=O)Nc3ccc(-c4csc(-c5ccccc5)n4)cc32)c1C` , which is 3.1

Record `Cc1ccc(NC(=O)c2ccc(CN3CCN(C)CC3)cc2)cc1Nc1nc(-c2cccnc2)cs1` , field drug sensitivity score: 0.2

Reported drug sensitivity score ( `CC(C)(O)CC(=O)NCCn1ccc2ncnc(Nc3ccc(Oc4cccc(C(F)(F)F)c4)c(Cl)c3)c21` ) = 0

Value of measured drug sensitivity score for the entry `CCCOc1ccn2c(C(C)=O)cc(-c3ccccc3S(C)(=O)=O)c2c1` : 0

The recorded drug sensitivity score for O=C(/C=C\n1cnc(-c2cc(C(F)(F)F)cc(C(F)(F)F)c2)n1)NNc1ccccn1 [Verdinexor] is 7.1
